Measured values drawn from patent US9890176B2 for this set.

Target: carbohydrate recognition domain of the protein FimH (M1-T179) (Escherichia coli)
Construct: domain of the protein FimH (M1-T179) with an uncleavable C-terminus 6-His tag; made in house; host or cells: E. coli (pET21b plasmid)
Sequence (P08191 22-179 limits assumed): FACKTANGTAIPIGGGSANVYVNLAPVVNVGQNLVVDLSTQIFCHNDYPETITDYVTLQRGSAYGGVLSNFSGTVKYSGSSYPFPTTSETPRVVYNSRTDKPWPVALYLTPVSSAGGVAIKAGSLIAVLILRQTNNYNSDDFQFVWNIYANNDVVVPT
Assay: Thermal Shift Assay
Assay type: binding, E. coli
Conditions: 5.6 μM protein, 56 μM ligand; DMSO control as reference; ± standard error of the mean (number of repeats)
measured.endpoint: Delta Thermal melt

The following molecules have reported results that may help.
[
  {
    "molecular.string": "COc1cc(Br)ccc1O[C@H]1O[C@H](CO)[C@@H](O)[C@H](O)[C@@H]1F",
    "measured.endpoint": "Delta Thermal melt",
    "reported.value": "1.8 (1) ° C."
  },
  {
    "molecular.string": "Cc1cc(-c2cccc([N+](=O)[O-])c2)ccc1O[C@H]1O[C@H](CO)[C@@H](O)[C@H](O)[C@@H]1F",
    "measured.endpoint": "Delta Thermal melt",
    "reported.value": "6.01 (1) ° C."
  },
  {
    "molecular.string": "CNC(=O)c1cccc(-c2ccc(O[C@H]3O[C@H](CO)[C@@H](O)[C@H](O)[C@@H]3F)c(C(F)(F)F)c2)c1",
    "measured.endpoint": "Delta Thermal melt",
    "reported.value": "5.6 (1) ° C."
  },
  {
    "molecular.string": "Cc1cc(=O)oc2cc(O[C@H]3O[C@H](CO)[C@@H](O)[C@H](O)[C@@H]3F)ccc12",
    "measured.endpoint": "Delta Thermal melt",
    "reported.value": "3.405 ± 0.105 (2) ° C."
  },
  {
    "molecular.string": "CNC(=O)c1cccc(-c2ccc(O[C@H]3O[C@H](CO)[C@@H](O)[C@H](O)[C@@H]3F)c(C)c2)c1",
    "measured.endpoint": "Delta Thermal melt",
    "reported.value": "4.905 ± 0.195 (2) ° C."
  },
  {
    "molecular.string": "CNC(=O)c1cccc(-c2ccc(O[C@H]3O[C@H](CO)[C@@H](O)[C@H](F)[C@@H]3O)cc2)c1",
    "measured.endpoint": "Delta Thermal melt",
    "reported.value": "2.6 (1) ° C."
  }
]

Next molecule, please.
Delta Thermal melt measured on CNC(=O)c1cccc(-c2ccc(O[C@H]3O[C@H](CO)[C@@H](O)[C@H](O)[C@@H]3F)cc2)c1 = 3.86 ± 0.09 (2) ° C.
